Entry source: paper PMC12704249

Target: BChE isolated from equine serum (Equus caballus)
Construct: BChE isolated from equine serum (≥10 U per mg protein)
Sequence (P81908 whole entry): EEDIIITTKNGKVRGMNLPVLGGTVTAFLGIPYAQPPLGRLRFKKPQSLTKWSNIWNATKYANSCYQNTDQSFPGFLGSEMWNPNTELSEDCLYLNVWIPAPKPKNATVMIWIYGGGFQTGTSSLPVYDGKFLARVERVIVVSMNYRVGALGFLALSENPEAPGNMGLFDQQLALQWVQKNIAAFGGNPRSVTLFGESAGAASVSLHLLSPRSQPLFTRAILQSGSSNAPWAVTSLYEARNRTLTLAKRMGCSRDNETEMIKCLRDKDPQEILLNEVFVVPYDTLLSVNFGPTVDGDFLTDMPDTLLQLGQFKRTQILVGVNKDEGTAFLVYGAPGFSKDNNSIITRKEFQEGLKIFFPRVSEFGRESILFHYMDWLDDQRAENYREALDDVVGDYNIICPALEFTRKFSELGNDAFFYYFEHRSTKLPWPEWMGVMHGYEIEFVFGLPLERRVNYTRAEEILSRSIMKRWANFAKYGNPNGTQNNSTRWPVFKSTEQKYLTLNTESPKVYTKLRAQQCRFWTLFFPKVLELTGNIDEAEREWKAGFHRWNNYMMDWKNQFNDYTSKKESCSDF
Assay: BChE inhibition assay (modified Ellman's colorimetric method, Lineweaver–Burk Ki)
Conditions: Lineweaver–Burk plots; 0.1 M Tris–HCl pH 8.0; substrate butyrylthiocholine iodide
Property Name: Ki (nM)
Numbers only, in nM.

Field: Ki. Fill in for each record below.
1. C=CCN1C(=O)/C(=C/c2cc(CN3CCN(C)CC3)c(O)c(OC)c2)SC1=S [Compound 2]
2. C=CCN1C(=O)/C(=C/c2cc(CN3CCN(c4ncccn4)CC3)c(O)c(OC)c2)SC1=S [Compound 7]
3. C=CCN1C(=O)/C(=C/c2cc(CN3CCN(c4ccccc4)CC3)c(O)c(OCC)c2)SC1=S [Compound 10]
4. C=CCN1C(=O)/C(=C/c2cc(CN3CCOCC3)c(O)c(CN3CCOCC3)c2)SC1=S [Compound 13]
5. C=CCN1C(=O)/C(=C/c2cc(CN3CCCC(C)C3)c(O)c(OC)c2)SC1=S (centres unmarked) [Compound 5]

output:
1. 50.9
2. 29
3. 21.6
4. 112
5. 88.7

----------
The listing below reports pKi for compounds tested on AChE derived from Electrophorus electricus (Electrophorus electricus, UniProt O42275).
Sequence (O42275 24-633): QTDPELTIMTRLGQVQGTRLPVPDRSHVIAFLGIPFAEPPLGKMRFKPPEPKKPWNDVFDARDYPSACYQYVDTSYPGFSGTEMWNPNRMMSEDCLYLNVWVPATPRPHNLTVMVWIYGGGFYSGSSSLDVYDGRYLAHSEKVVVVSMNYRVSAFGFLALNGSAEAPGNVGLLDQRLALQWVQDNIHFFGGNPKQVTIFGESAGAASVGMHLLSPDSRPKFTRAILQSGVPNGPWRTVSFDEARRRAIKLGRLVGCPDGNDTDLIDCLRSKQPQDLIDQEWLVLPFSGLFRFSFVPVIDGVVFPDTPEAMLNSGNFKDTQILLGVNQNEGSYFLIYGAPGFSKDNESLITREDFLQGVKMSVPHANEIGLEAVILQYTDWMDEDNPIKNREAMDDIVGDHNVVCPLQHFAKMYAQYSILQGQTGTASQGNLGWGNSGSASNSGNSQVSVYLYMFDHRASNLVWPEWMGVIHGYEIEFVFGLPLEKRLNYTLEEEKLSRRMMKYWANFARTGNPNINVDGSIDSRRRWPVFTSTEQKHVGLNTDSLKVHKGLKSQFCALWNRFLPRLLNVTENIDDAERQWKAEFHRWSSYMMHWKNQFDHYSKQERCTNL
Numbers only, as −log10 of the molar value.

Previously resolved entries follow.
Structure As Smiles	Target Under Test	pKi
C=CCN1C(=O)/C(=C/c2cc(CN3CCN(C(=O)OCC)CC3)c(O)c(OCC)c2)SC1=S	AChE derived from Electrophorus electricus (Electrophorus electricus, UniProt O42275)	7.50
C=CCN1C(=O)/C(=C/c2cc(CN3CCN(C(=O)OCC)CC3)c(O)c(OC)c2)SC1=S	AChE derived from Electrophorus electricus (Electrophorus electricus, UniProt O42275)	7.54
C=CCN1C(=O)/C(=C/c2cc(CN3CCOCC3)c(O)c(CN3CCOCC3)c2)SC1=S	AChE derived from Electrophorus electricus (Electrophorus electricus, UniProt O42275)	7.58

Field: pKi. Fill in for each record below.
1. C=CCN1C(=O)/C(=C/c2cc(CN3CCc4ccccc4C3)c(O)c(OC)c2)SC1=S
2. C=CCN1C(=O)/C(=C/c2cc(CN3CCOCC3)c(O)c(OC)c2)SC1=S

output:
7.87
7.24

----------
Target: BChE isolated from equine serum (Equus caballus)
Construct: BChE isolated from equine serum (≥10 U per mg protein); purchased Sigma-Aldrich (St. Louis, MO, USA); host or cells: equine serum
Test: BChE inhibition assay (modified Ellman's colorimetric method, Lineweaver–Burk Ki)
Type: biochemical
Conditions: relative to tacrine Ki
Exercise: state measured BChE Ki, fold more inhibitory than tacrine for each of the compounds provided.
Give bare numbers, in fold.

Structure As Smiles	Result Number
C=CCN1C(=O)/C(=C/c2cc(CN3CCc4ccccc4C3)c(O)c(OC)c2)SC1=S	16.24

Here is another compound to look at.
input: Tell me measured BChE Ki, fold more inhibitory than tacrine for C=CCN1C(=O)/C(=C/c2cc(CN3CCN(c4ncccn4)CC3)c(O)c(OC)c2)SC1=S please.
output: 5.85
